experiment: Pharmacokinetics after intravenous and oral administration in rats; format: in vivo; conditions: rat, plasma, iv dosing, dose 1 mg/kg
Exercise: for every item that follows, state its recorded half-life.
Reply with just the number (in min).

[in] What does the data say about its half-life? Entry: Cn1cc(Nc2ncc(Cl)c(N[C@@H]3COC4C3OC[C@@H]4NS(=O)(=O)CC3CCC3)n2)cn1 (stereo partly shown)
[out] 37.2

[in] What does the data say about its half-life? Entry: Cn1cc(Nc2ncc(Cl)c(N[C@@H]3COC4C3OC[C@@H]4NS(=O)(=O)C3CC3)n2)cn1 (stereo partly shown)
[out] 21

[in] What does the data say about its half-life? Entry: Cn1cc(Nc2ncc(Cl)c(N[C@@H]3COC4C3OC[C@@H]4NS(=O)(=O)CC3CCCC3)n2)cn1 (stereo partly shown)
[out] 18

[in] What does the data say about its half-life? Entry: Cn1cc(Nc2ncc(Cl)c(N[C@@H]3COC4C3OC[C@@H]4N3CCCC3=O)n2)cn1 (stereo partly shown)
[out] 65.4
